targetSystem: NLRP3 (Homo sapiens, UniProt Q96P20)
Sequence (Q96P20 whole entry): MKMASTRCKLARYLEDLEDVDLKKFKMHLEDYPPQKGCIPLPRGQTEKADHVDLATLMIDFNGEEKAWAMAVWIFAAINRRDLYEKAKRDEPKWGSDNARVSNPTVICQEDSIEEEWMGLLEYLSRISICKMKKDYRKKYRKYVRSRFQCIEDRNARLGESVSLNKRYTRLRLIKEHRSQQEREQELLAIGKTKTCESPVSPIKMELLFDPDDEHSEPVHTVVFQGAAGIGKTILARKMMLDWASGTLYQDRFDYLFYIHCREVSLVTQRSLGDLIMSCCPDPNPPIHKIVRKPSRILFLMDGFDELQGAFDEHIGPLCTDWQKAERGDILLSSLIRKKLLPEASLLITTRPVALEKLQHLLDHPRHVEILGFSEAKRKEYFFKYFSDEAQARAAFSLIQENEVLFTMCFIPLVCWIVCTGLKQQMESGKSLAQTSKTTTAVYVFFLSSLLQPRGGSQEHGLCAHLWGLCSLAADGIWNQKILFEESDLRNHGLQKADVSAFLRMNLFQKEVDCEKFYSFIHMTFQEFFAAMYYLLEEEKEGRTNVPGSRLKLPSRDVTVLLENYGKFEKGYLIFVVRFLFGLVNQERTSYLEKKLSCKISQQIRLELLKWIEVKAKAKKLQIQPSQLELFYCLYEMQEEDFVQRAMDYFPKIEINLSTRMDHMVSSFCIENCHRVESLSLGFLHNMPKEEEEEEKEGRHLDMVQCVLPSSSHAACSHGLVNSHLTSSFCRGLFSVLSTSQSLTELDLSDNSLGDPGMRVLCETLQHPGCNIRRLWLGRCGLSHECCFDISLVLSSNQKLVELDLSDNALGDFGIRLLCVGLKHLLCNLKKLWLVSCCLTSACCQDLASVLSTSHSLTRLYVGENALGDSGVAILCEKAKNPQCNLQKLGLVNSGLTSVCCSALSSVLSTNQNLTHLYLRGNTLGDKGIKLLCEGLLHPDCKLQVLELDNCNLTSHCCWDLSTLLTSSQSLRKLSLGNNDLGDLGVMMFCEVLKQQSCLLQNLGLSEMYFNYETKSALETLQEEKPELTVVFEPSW
assayNotes: Human whole blood IL-1β release assay (LPS, nigericin, AlphaLisa)
Type: cell-based
Parameters: Plate out 80 μl of whole blood containing 1 μg/ml of LPS; from tissue; host or cells: human whole blood from healthy donors, LPS-primed, nigericin-stimulated
testConditions: 1 μg/ml LPS, 3 hours compound, 10 μM nigericin 1 hr, IL-1β in supernatant
measurementType: IC50 (nM)

Below, each entry is followed by its recorded IC50 result.
compound	unitText	IC50
CCN1CCC[C@@H](Nc2cc(C)c(-c3ccc4c(C)c[nH]c4c3)nn2)C1	nM	234
CCN1CCC[C@@H](Nc2nnc(-c3ccc4cc[nH]c4c3)c3c2cnn3C)C1	nM	52
CCN1CCC[C@@H](Nc2nnc(-c3ccc4c(F)c[nH]c4c3)c(C)n2)C1	nM	43.2
CCN1CCC[C@@H](Nc2cc(C(F)(F)F)c(-c3ccc4c(F)c[nH]c4c3)nn2)C1	nM	44.1
Cc1cc(N2CC[C@@H]3CCN(C)C[C@@H]32)nnc1-c1ccc2c(F)c[nH]c2c1 (single isomer, unassigned) [Example 18A]	nM	31
CCN1CCC[C@@H](Nc2cc(C)c(-c3ccc4cc[nH]c4c3)nn2)C1	nM	17.1
CCN1CCC[C@@H](Nc2cc(C)c(-c3ccc4cc[nH]c4c3F)nn2)C1	nM	45.1
CCc1cc(N[C@@H]2CCCN(CC)C2)nnc1-c1ccc2c(F)c[nH]c2c1	nM	25.4

I: Cc1cc(N2CC[C@H]3CCN(C)C[C@H]32)nnc1-c1ccc2c(F)c[nH]c2c1 [Example 18B]
II: CCN1CCC[C@@H](Nc2cc(C)c(-c3cc4[nH]ccc4cc3F)nn2)C1
III: CCN1CCC[C@@H](Nc2nnc(-c3ccc4cc[nH]c4c3)c(C)n2)C1
IV: CCN1CCC[C@@H](Nc2cc(C)c(-c3ccc4c(F)c[nH]c4c3)nn2)C1
V: CCN1CCC[C@@H](Nc2ccc(-c3cc4[nH]ccc4cc3C)nn2)C1
Req: Please list these compounds in decreasing order of IC50. Give the order by naming the labels one after another as requested.
Resp: I, V, II, III, IV
(I: 179 nM, V: 113 nM, II: 48.6 nM, III: 28.6 nM, IV: 9.5 nM)

I: CCN1CCC[C@@H](Nc2cc(C)c(-c3ccc4cc(C)[nH]c4c3)nn2)C1
II: Cc1cc(N[C@@H]2CCCN(C)C2)nnc1-c1ccc2c(F)c[nH]c2c1
Req: // max by IC50 over [ I , II ] Please identify the chosen entry by its label.
Resp: I

---

targetSystem: UniProt:Q96P20
assayNotes: THP-1 cells pyroptosis assay (LPS priming, nigericin, resazurin read-out)
Format: cell-based
Design: Seed THP-1 cells (25,000 cells/well) containing 1.0 μg/ml LPS; host or cells: THP-1 cells, LPS-primed, nigericin-stimulated
testConditions: 1 μg/ml LPS, 3 hours compound, 5 μM nigericin 1 hr
Experimental: THP-1 cells (ATCC #TIB-202) were grown in RPMI containing L-glutamine (Gibco #11835) supplemented with 1 mM sodium pyruvate (Sigma #S8636) and penicillin (100 units/ml)/streptomycin (0.1 mg/ml) (Sigma #P4333) in 10% Fetal Bovine Serum (FBS) (Sigma #F0804). […] The cells were then counted and viability (>90%) checked by Trypan blue (Sigma #T8154). […] The following method step-by-step assay was followed for compound screening. • 1. […] Plates were read in an Envision reader at Ex 560 nm and Em 590 nm • 9. […]
pIC50: −log10 of the molar value.
measurementType: pIC50

Below, each entry is followed by its recorded pIC50 result.
molecule	pIC50
Cc1cc(N2CC[C@H]3CCN(C)C[C@H]32)nnc1-c1ccc2c(F)c[nH]c2c1 [Example 18B]	7.43
Cc1cc(N2CC[C@@H]3CCN(C)C[C@@H]32)nnc1-c1ccc2c(F)c[nH]c2c1 (single isomer, unassigned) [Example 18A]	8.70
CCN1CCC[C@@H](Nc2ccc(-c3cc4[nH]ccc4cc3C)nn2)C1	7.68
CCc1cc(N[C@@H]2CCCN(CC)C2)nnc1-c1ccc2c(F)c[nH]c2c1	7.74

A: CCN1CCC[C@@H](Nc2cc(C)c(-c3ccc4cc(C#N)[nH]c4c3)nn2)C1
B: CCN1CCC[C@@H](Nc2cc(C)c(-c3ccc4cc(C)[nH]c4c3)nn2)C1
C: CCN1CCC[C@@H](Nc2nnc(-c3ccc4cc[nH]c4c3)c3c2cnn3C)C1
D: CCN1CCC[C@@H](Nc2cc(C)c(-c3ccc4c(C)c[nH]c4c3)nn2)C1
Req: Please order the records by their reported pIC50, lowest number first. Give the order by naming the labels one after another as requested.
Resp: A, D, C, B

Values compiled from patent US20250353830A1.
